B1: PWWP2B (parent)
chain: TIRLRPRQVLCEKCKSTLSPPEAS

# Variants of: B1
# test method notes: protein stability index of a GFP-peptide fusion (GPS, HEK-293T) (PSI 1-6); higher = more stable;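 also: lentivirally expressed fusions sorted by FACS into six bins by GFP to DsRed ratio, PSI derived from sequencing read proportions per bin multiplied by bin number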
# measurement setup: c terminus: a fixed tail appended
Rule: Met for protein stability index not less than 3, Not met for anything less.

1. K13H | Not met
2. R3L | Not met
3. R5H | Met
4. C14P | Met
5. K15E | Met
6. E22I | Not met
7. L4N | Met
8. P20T | Not met
9. T1Y | Not met
10. R5E | Met
11. L18S | Not met
12. T17Y | Not met
13. P21G | Not met
14. S16Q | Met
15. L10F | Not met
16. K13D | Met
17. S24I | Not met
18. L4P | Met
19. C11G | Met

Where do the numbers come from? From the supplement of paper PMC10567573.
